Here, each record is paired with measured kon data.
experimental system: Escherichia coli SC (^EcSC) (Escherichia coli, UniProt P0A988)
Construct: His tag (inferred from the pET15b vector and Ni-NTA purification) (N); made in house; host or cells: E. coli
Sequence (P0A988 whole entry): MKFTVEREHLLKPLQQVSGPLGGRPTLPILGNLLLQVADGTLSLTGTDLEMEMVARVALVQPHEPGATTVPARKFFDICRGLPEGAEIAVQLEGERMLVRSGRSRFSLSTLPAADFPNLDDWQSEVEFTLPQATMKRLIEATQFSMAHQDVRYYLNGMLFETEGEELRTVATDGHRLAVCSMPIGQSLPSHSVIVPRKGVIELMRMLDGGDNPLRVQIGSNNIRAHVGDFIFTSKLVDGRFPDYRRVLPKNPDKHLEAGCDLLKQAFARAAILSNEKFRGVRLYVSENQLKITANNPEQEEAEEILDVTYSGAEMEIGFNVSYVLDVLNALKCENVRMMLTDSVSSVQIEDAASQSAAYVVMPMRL
protocol: biochemical
Format: binding
conditions used: read-out: kon (M^-1.s^-1)
Square brackets hold non-standard residues; d marks the D form. Peptide text beside a SMILES is read from it. * marks the point of attachment. Acryloyl(3-(3-pyridyl),E) = O=C(/C=C/c1cccnc1)*; X7 = C[N+](C)=C(NCC(=O)*)N1CCOCC1; X4 = O=C([O-])[C@H](Cc1ccccc1)N*; tBuAla = CC(C)(C)C[C@H](N)C(=O)O; Cha = N[C@@H](CC1CCCCC1)C(=O)O; Sar = CNCC(=O)O
measured endpoint: kon (M⁻¹ s⁻¹)

* CC(=O)N[C@@H](CCC(N)=O)C(=O)N[C@@H](CC1CCCCC1)C(=O)N[C@@H](CC(=O)O)C(=O)N[C@@H](CC(C)C)C(=O)NCC(=O)N[C@@H](CC(C)(C)C)C(=O)O [P28] (Ac-Q[Cha]DLG[tBuAla]-OH) | 11000
* CC(=O)N[C@@H](CCC(N)=O)C(=O)N[C@@H](CC1CCCCC1)C(=O)N[C@@H](CC(=O)O)C(=O)N[C@@H](CC(C)C)C(=O)N(C)CC(=O)N[C@@H](CC(C)C)C(=O)O [P30] (Ac-Q[Cha]DL[Sar]L-OH) | 40000
* CC(C)C[C@H](NC(=O)[C@H](CC(=O)O)NC(=O)[C@H](CC1CCCCC1)NC(=O)[C@H](CCC(N)=O)NC(=O)/C=C/c1cccnc1)C(=O)N[C@@H](Cc1ccccc1)C(=O)O [P16] ({Acryloyl(3-(3-pyridyl),E)}-Q[Cha]DLF-OH) | 46000
* CC(C)C[C@H](NC(=O)[C@H](CC(=O)O)NC(=O)[C@H](CC1CCCCC1)NC(=O)[C@H](CCC(N)=O)NC(=O)CNC(N1CCOCC1)=[N+](C)C)C(=O)N[C@@H](Cc1ccccc1)C(=O)[O-] [P14] (X7-Q[Cha]DL-X4) | 34000

---

experimental system: Escherichia coli SC (^EcSC) (Escherichia coli)
Construct: His tag (inferred from the pET15b vector and Ni-NTA purification) (N); made in house; host or cells: E. coli
protocol: biochemical
Type: binding
conditions used: Kd (nM), ITC at 298.15 K (25° C.)
Square brackets hold non-standard residues; d marks the D form. Peptide text beside a SMILES is read from it. * marks the point of attachment. Acryloyl(3-(3-pyridyl),E) = O=C(/C=C/c1cccnc1)*; Phe(3,4-Cl2) = N[C@@H](Cc1ccc(Cl)c(Cl)c1)C(=O)O; Oic = O=C(O)[C@@H]1C[C@@H]2CCCC[C@@H]2N1; NMeCha = CN[C@@H](CC1CCCCC1)C(=O)O; NMeR = CN[C@@H](CCCNC(=N)N)C(=O)O; tBuAla = CC(C)(C)C[C@H](N)C(=O)O; Cha = N[C@@H](CC1CCCCC1)C(=O)O; NMeD = CN[C@@H](CC(=O)O)C(=O)O; NHPhenethyl = c1ccc(CCN*)cc1; X8 = NC[C@H](Cc1ccccc1)N*
We label by threshold. Values of Kd strictly beneath 200 nM are MET. Values of 200 nM and up are NOT MET.

- CC(=O)N[C@@H](CCC(N)=O)C(=O)N[C@@H](CC1CCCCC1)C(=O)N[C@@H](CC(=O)O)C(=O)N[C@@H](CC(C)C)C(=O)NCCc1ccccc1 [P23] (Ac-Q[Cha]DL-NHPhenethyl): NOT MET
- CC(=O)N(C)[C@@H](CCCNC(=N)N)C(=O)N[C@@H](CCC(N)=O)C(=O)N[C@@H](CC1CCCCC1)C(=O)N[C@@H](CC(=O)O)C(=O)N[C@@H](CC(C)C)C(=O)N[C@@H](Cc1ccccc1)C(=O)O [P13] (Ac-[NMeR]Q[Cha]DLF-OH): NOT MET
- CC(=O)N[C@@H](CCC(N)=O)C(=O)N[C@@H](CC1CCCCC1)C(=O)N[C@@H](CC(=O)O)C(=O)N[C@@H](CC(C)C)C(=O)N1[C@H](C(=O)N[C@@H](Cc2ccc(Cl)c(Cl)c2)C(=O)O)C[C@@H]2CCCC[C@@H]21 [P50] (Ac-Q[Cha]DL[Oic][Phe(3,4-Cl2)]-OH): MET
- CC(=O)N[C@@H](CCC(N)=O)C(=O)N[C@@H](CC1CCCCC1)C(=O)N[C@@H](CC(=O)O)C(=O)N[C@@H](CC(C)C)C(=O)N[C@H](CN)Cc1ccccc1 [P25] (Ac-Q[Cha]DL-X8): NOT MET
- CC(C)C[C@H](NC(=O)[C@H](CC(=O)O)N(C)C(=O)[C@H](CC1CCCCC1)NC(=O)[C@H](CCC(N)=O)NC(=O)/C=C/c1cccnc1)C(=O)N1[C@H](C(=O)N[C@@H](Cc2ccccc2)C(=O)O)C[C@@H]2CCCC[C@@H]21 [P49] ({Acryloyl(3-(3-pyridyl),E)}-Q[Cha][NMeD]L[Oic]F-OH): MET
- CC(=O)N[C@@H](CCC(N)=O)C(=O)N[C@@H](CC1CCCCC1)C(=O)N[C@@H](CC(=O)O)C(=O)N[C@@H](CC(C)C)C(=O)N1CCC[C@H]1C(=O)N[C@@H](CC(C)C)C(=O)O [P32] (Ac-Q[Cha]DLPL-OH): MET
- CC(=O)N[C@@H](CCC(N)=O)C(=O)N(C)[C@@H](CC1CCCCC1)C(=O)N[C@@H](CC(=O)O)C(=O)N[C@@H](CC(C)C)C(=O)N[C@@H](Cc1ccccc1)C(=O)O [P3] (Ac-Q[NMeCha]DLF-OH): NOT MET
- CC(=O)N[C@@H](CCC(N)=O)C(=O)N[C@@H](CC1CCCCC1)C(=O)N[C@@H](CC(=O)O)C(=O)N[C@@H](CC(C)C)C(=O)NCC(=O)N[C@@H](CC(C)(C)C)C(=O)O [P28] (Ac-Q[Cha]DLG[tBuAla]-OH): NOT MET

---

experimental system: Escherichia coli SC (^EcSC) (Escherichia coli)
Construct: His tag (inferred from the pET15b vector and Ni-NTA purification) (N); made in house; host or cells: E. coli
protocol: biochemical
Type: binding
conditions used: read-out: kon (M^-1 s^-1)
Numbered stars: 1 amine (or outer) side, 2 acyl side, 3 side chain; on linkers, the order of the positions; unused ones are H or OH. Square brackets hold non-standard residues; d marks the D form. Peptide text beside a SMILES is read from it. * marks the point of attachment. ξ: configuration not given here. Acryloyl(3-(3-pyridyl),E) = O=C(/C=C/c1cccnc1)*; Phe(3,4-Cl2) = N[C@@H](Cc1ccc(Cl)c(Cl)c1)C(=O)O; Phe(3,4-F2) = N[C@@H](Cc1ccc(F)c(F)c1)C(=O)O; Oic = O=C(O)[C@@H]1C[C@@H]2CCCC[C@@H]2N1; Cinnamoyl(4-F) = O=C(/C=C/c1ccc(F)cc1)*; NH(4-MeO-phenyl) = COc1ccc(N*)cc1; Cha = N[C@@H](CC1CCCCC1)C(=O)O; NMeD = CN[C@@H](CC(=O)O)C(=O)O; ξOic = O=C(O)C1CC2CCCCC2N1; X6 = O=C(/C=C/c1ccccc1)*; CO = O=C([*:1])[*:2]
Catalogue of compounds with associated kon
measured endpoint: kon (M⁻¹ s⁻¹)

• CC(=O)N[C@@H](CCC(N)=O)C(=O)N[C@@H](CC1CCCCC1)C(=O)N[C@@H](CC(=O)O)C(=O)N[C@@H](CC(C)C)C(=O)N1[C@H](C(=O)N[C@@H](Cc2ccccc2)C(=O)O)C[C@@H]2CCCC[C@@H]21 [P48] (Ac-Q[Cha]DL[Oic]F-OH) = 55000
• CC(=O)N[C@@H](CCC(N)=O)C(=O)N[C@@H](CC1CCCCC1)C(=O)N[C@@H](CC(=O)O)C(=O)N[C@@H](CC(C)C)C(=O)N1[C@H](C(=O)N[C@@H](Cc2ccc(Cl)c(Cl)c2)C(=O)O)C[C@@H]2CCCC[C@@H]21 [P50] (Ac-Q[Cha]DL[Oic][Phe(3,4-Cl2)]-OH) = 60000
• CC(C)C[C@H](NC(=O)[C@@H]1CCCN1C(=O)[C@H](CC(C)C)NC(=O)[C@H](CC(=O)O)N(C)C(=O)[C@H](CC1CCCCC1)NC(=O)[C@H](CCC(N)=O)NC(=O)/C=C/c1cccnc1)C(=O)O [P44] ({Acryloyl(3-(3-pyridyl),E)}-Q[Cha][NMeD]LPL-OH) = 63000
• CC(C)C[C@H](NC(=O)[C@@H]1CCCN1C(=O)[C@H](CC(C)C)NC(=O)[C@H](CC(=O)O)NC(=O)[C@H](CC1CCCCC1)NC(=O)[C@H](CCC(N)=O)NC(=O)/C=C/c1ccccc1)C(=O)O [P43] (X6-Q[Cha]DLPL-OH) = 60000
• CC(C)C[C@H](NC(=O)[C@H](CC(=O)O)N(C)C(=O)[C@H](CC1CCCCC1)NC(=O)[C@H](CCC(N)=O)NC(=O)/C=C/c1cccnc1)C(=O)N1CCC[C@H]1C(=O)N[C@@H](Cc1ccccc1)C(=O)O [P46] ({Acryloyl(3-(3-pyridyl),E)}-Q[Cha][NMeD]LPF-OH) = 140000
• CC(=O)N[C@@H](CCC(N)=O)C(=O)N[C@@H](CC1CCCCC1)C(=O)N(C)[C@@H](CC(=O)O)C(=O)N[C@@H](CC(C)C)C(=O)N1CCC[C@H]1C(=O)N[C@@H](Cc1ccccc1)C(=O)O [P45] (Ac-Q[Cha][NMeD]LPF-OH) = 60000
• CC(=O)N[C@@H](CCC(N)=O)C(=O)N[C@@H](CC1CCCCC1)C(=O)N(C)[C@@H](CC(=O)O)C(=O)N[C@@H](CC(C)C)C(=O)N1CCC[C@H]1C(=O)N[C@@H](CC(C)C)C(=O)O [P42] (Ac-Q[Cha][NMeD]LPL-OH) = 100000
• CC(C)C[C@H](NC(=O)[C@H](CC(=O)O)N(C)C(=O)[C@H](CC1CCCCC1)NC(=O)[C@H](CCC(N)=O)NC(=O)/C=C/c1cccnc1)C(=O)N1[C@H](C(=O)N[C@@H](Cc2ccccc2)C(=O)O)C[C@@H]2CCCC[C@@H]21 [P49] ({Acryloyl(3-(3-pyridyl),E)}-Q[Cha][NMeD]L[Oic]F-OH) = 47000
• CC(=O)N[C@@H](CCCNC(=N)N)C(=O)N[C@@H](CCC(N)=O)C(=O)N[C@@H](CC1CCCCC1)C(=O)N(C)[C@@H](CC(=O)O)C(=O)N[C@@H](CC(C)C)C(=O)N[C@@H](Cc1ccc(Cl)c(Cl)c1)C(=O)O [P36] (Ac-RQ[Cha][NMeD]L[Phe(3,4-Cl2)]-OH) = 76000
• CC(=O)N[C@@H](CCC(N)=O)C(=O)N[C@@H](CC1CCCCC1)C(=O)N(C)[C@@H](CC(=O)O)C(=O)N[C@@H](CC(C)C)C(=O)N[C@@H](Cc1ccc(F)c(F)c1)C(=O)O [P40] (Ac-Q[Cha][NMeD]L[Phe(3,4-F2)]-OH) = 56000
• CC(=O)N[C@@H](CCC(N)=O)C(=O)N[C@@H](CC1CCCCC1)C(=O)N(C)[C@@H](CC(=O)O)C(=O)N[C@@H](CC(C)C)C(=O)N[C@@H](Cc1ccc(Cl)c(Cl)c1)C(=O)O [P35] (Ac-Q[Cha][NMeD]L[Phe(3,4-Cl2)]-OH) = 270000
• CC(C)C[C@H](NC(=O)[C@H](CC(=O)O)N(C)C(=O)[C@H](CC1CCCCC1)NC(=O)[C@H](CCC(N)=O)NC(=O)/C=C/c1cccnc1)C(=O)N[C@@H](Cc1ccc(Cl)c(Cl)c1)C(=O)O [P38] ({Acryloyl(3-(3-pyridyl),E)}-Q[Cha][NMeD]L[Phe(3,4-Cl2)]-OH) = 110000
• CC(=O)N[C@@H](CCC(N)=O)C(=O)N[C@@H](CC1CCCCC1)C(=O)N[C@@H](CC(=O)O)C(=O)N[C@@H](CC(C)C)C(=O)N1C(C(=O)N[C@@H](CC(C)C)C(=O)O)CC2CCCCC21 (stereo partly drawn) [P47] (Ac-Q[Cha]DL[ξOic]L-OH) = 71000
• COc1ccc(NC(=O)N[C@@H](CCC(N)=O)C(=O)N[C@@H](CC2CCCCC2)C(=O)N(C)[C@@H](CC(=O)O)C(=O)N[C@@H](CC(C)C)C(=O)N[C@@H](Cc2ccc(Cl)c(Cl)c2)C(=O)O)cc1 [P39] ({NH(4-MeO-phenyl)-CO}-Q[Cha][NMeD]L[Phe(3,4-Cl2)]-OH) = 42000
• CC(C)C[C@H](NC(=O)[C@H](CC(=O)O)N(C)C(=O)[C@H](CC1CCCCC1)NC(=O)[C@H](CCC(N)=O)NC(=O)/C=C/c1ccc(F)cc1)C(=O)N[C@@H](Cc1ccc(F)c(F)c1)C(=O)O [P41] ({Cinnamoyl(4-F)}-Q[Cha][NMeD]L[Phe(3,4-F2)]-OH) = 51000
